Target: Serine/threonine-protein kinase Chk1 (Homo sapiens)
Experiment: Inhibition of human recombinant Chk1 at 10 uM
Could you label it Yes if measured inhibition is 50% or higher, and No otherwise?

Some solved cases for reference:
N#Cc1ccc(CNC(=O)c2cc3c(c4c2[nH]c2ccccc24)C(=O)NC3=O)cc1: No
NC(=O)c1ccc(CNC(=O)c2cc3c(c4c2[nH]c2ccccc24)C(=O)NC3=O)cc1: No
N#Cc1cccc(CNC(=O)c2cc3c(c4c2[nH]c2ccccc24)C(=O)NC3=O)c1: No
O=C1NC(=O)c2c1cc(C(=O)O)c1[nH]c3ccccc3c21: No
CC(C)(C)OC(=O)c1cc2c(c3c1[nH]c1ccccc13)C(=O)NC2=O: No
NC(=O)c1cccc(CNC(=O)c2cc3c(c4c2[nH]c2ccccc24)C(=O)NC3=O)c1: Yes

// inclusive: inhibition at least 50%? input: "O=C1NC(=O)c2c1cc(C(=O)NCc1ccccc1)c1[nH]c3ccccc3c21"
Yes
